target-or-test-system: insect TRPV channels, Nan and Iav (Drosophila melanogaster, UniProt M9PI57+Q9W3W0)
Sequence (M9PI57 1-834): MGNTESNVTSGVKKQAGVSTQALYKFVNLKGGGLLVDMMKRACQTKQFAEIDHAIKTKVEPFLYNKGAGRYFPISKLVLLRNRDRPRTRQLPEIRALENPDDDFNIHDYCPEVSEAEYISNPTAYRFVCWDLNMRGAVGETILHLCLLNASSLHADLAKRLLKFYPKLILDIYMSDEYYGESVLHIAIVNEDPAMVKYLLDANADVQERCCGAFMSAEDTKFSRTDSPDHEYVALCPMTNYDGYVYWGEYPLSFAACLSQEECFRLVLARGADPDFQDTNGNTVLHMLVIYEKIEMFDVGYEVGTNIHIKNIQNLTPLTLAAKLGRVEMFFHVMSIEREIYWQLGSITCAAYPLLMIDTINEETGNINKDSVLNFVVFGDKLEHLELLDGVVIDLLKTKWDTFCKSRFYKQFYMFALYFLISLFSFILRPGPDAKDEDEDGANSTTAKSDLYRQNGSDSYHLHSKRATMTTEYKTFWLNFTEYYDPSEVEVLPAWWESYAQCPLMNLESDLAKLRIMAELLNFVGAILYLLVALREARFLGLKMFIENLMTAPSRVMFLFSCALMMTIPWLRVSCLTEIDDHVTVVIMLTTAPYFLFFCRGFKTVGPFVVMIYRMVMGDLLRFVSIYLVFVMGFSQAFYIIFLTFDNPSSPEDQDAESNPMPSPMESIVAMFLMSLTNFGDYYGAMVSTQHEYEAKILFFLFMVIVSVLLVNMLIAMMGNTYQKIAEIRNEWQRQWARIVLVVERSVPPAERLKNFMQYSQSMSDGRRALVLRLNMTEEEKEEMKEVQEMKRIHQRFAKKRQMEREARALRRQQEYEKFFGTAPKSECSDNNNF
Sequence (Q9W3W0 1-1123): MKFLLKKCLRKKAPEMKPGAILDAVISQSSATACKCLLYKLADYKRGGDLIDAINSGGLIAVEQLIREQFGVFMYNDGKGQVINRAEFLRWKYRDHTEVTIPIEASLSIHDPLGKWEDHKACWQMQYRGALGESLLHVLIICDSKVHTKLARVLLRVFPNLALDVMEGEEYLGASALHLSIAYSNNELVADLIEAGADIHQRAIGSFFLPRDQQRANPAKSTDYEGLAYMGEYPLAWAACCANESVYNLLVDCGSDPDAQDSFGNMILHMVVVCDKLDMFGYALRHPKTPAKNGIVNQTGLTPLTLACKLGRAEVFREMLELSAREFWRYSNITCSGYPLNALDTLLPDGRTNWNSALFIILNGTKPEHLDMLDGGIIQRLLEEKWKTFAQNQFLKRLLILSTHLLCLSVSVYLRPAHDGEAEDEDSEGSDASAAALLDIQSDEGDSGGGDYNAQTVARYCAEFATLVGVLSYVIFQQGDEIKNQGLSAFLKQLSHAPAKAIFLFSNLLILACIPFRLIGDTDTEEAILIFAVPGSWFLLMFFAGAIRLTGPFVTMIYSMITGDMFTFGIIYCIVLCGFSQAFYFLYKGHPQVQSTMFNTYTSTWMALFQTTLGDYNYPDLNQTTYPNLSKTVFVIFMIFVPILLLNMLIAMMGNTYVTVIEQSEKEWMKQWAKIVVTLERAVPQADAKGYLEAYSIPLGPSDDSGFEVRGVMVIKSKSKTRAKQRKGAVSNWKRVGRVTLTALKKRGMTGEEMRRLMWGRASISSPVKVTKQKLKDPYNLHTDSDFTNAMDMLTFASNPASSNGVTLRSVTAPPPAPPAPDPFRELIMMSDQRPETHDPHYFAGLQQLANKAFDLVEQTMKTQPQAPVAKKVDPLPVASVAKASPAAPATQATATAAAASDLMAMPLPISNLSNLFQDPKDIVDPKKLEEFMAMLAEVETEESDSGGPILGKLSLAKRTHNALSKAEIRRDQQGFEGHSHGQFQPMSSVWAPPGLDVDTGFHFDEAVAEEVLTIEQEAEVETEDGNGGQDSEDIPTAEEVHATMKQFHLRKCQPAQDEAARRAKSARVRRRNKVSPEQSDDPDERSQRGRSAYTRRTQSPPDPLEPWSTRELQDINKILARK
assay-method-text: cell-based
measurement-kind: EC50

Recorded EC50 of CC1=NNC(=O)N(/N=C/c2cccnc2)C1 [pymetrozine] , please. 51 nM
